// data source = ChEMBL document CHEMBL4483862

System: Plasmodium berghei
assay_procedure: Luciferase/luciferin-expressing antifolate-resistant parasites were used to infect a culture of HepG2 cells that were pre-incubated with compounds. Infected hepatocytes emit light due to the luciferase reaction. Assay results are presented as the percent inhibition of light emission compared to control. […]
Type: functional
details: sporozoite, HEPG2TOX_HILL_SLOPE 6.71, HEPG2TOX_R_SQUARED 0.561, read-out: LUCIFERASE INFECTION ASSAY - IC50
value_type: IC50

Give the value of IC50 reported for the following: CSc1nc2c(c(=O)n(C)c(=O)n2C)n1Cc1cccc(C(F)(F)F)c1
> 8.59 µM

---

Tested on: Plasmodium berghei
assay_procedure: Luciferase/luciferin-expressing antifolate-resistant parasites were used to infect a culture of HepG2 cells that were pre-incubated with compounds. Infected hepatocytes emit light due to the luciferase reaction. Assay results are presented as the percent inhibition of light emission compared to control. […]
Type: functional
details: sporozoite, HEPG2TOX_HILL_SLOPE 3.02, HEPG2TOX_R_SQUARED 0.983, PBLUC_HILL_SLOPE 17.6, PBLUC_R_SQUARED 0.462, read-out: LUCIFERASE INFECTION ASSAY - IC50
value_type: pIC50
Remember, pIC50 is on a log scale: it is -log10 of the molar concentration.

Give the value of pIC50 reported for the following: Clc1ccc(SCc2cc(N3CCCCC3)nc(-c3ccccn3)n2)cc1
5.63

---

Test system: Plasmodium berghei
assay_procedure: Luciferase/luciferin-expressing antifolate-resistant parasites were used to infect a culture of HepG2 cells that were pre-incubated with compounds. Infected hepatocytes emit light due to the luciferase reaction. Assay results are presented as the percent inhibition of light emission compared to control. […]
Format: functional
details: sporozoite, PBLUC_HILL_SLOPE 9.86, PBLUC_R_SQUARED 0.717, read-out: LUCIFERASE INFECTION ASSAY - IC50
value_type: IC50 (µM)
API: value field is a number in µM; no unit string.

Give the value of IC50 reported for the following: O=C(Nc1nc2ccccc2[nH]1)c1cc(-c2ccccn2)nc2ccccc12
7.76

---

Test system: Plasmodium berghei
assay_procedure: Luciferase/luciferin-expressing antifolate-resistant parasites were used to infect a culture of HepG2 cells that were pre-incubated with compounds. Infected hepatocytes emit light due to the luciferase reaction. Assay results are presented as the percent inhibition of light emission compared to control. […]
Type: functional
details: sporozoite, HEPG2TOX_HILL_SLOPE 3.94, HEPG2TOX_R_SQUARED 0.381, PBLUC_HILL_SLOPE 3.66, PBLUC_R_SQUARED 0.738, read-out: LUCIFERASE INFECTION ASSAY - IC50
value_type: IC50

Give the value of IC50 reported for the following: O=C(NC1CCCC1)c1ccc(-c2cn3c(-c4ccc(Cl)cc4)cnc3cn2)cc1
1910 nM

---

# IC90 listing for each entry below
System: Plasmodium berghei
assay_procedure: Luciferase/luciferin-expressing antifolate-resistant parasites were used to infect a culture of HepG2 cells that were pre-incubated with compounds. Infected hepatocytes emit light due to the luciferase reaction. Assay results are presented as the percent inhibition of light emission compared to control. […]
Format: functional
details: sporozoite, read-out: LUCIFERASE INFECTION ASSAY - IC90
API: value field is a number in µM; no unit string.

# example entries with known answers
{"columns": ["substance_smiles", "system_under_test", "recorded_number"],
 "data": [
  ["Oc1cc(-c2ccccc2)nc2ccccc12", "Plasmodium berghei", 0.307],
  ["COc1cc(C(=O)N/N=C2/C(=O)c3cccc4cccc2c34)cc(OC)c1OC", "Plasmodium berghei", 3.67],
  ["O=C(N/N=C/c1cc(Br)ccc1O)c1ccccc1Oc1ccccc1", "Plasmodium berghei", 7.69],
  ["c1ccn2c(Sc3ncnc4sccc34)nnc2c1", "Plasmodium berghei", 9.31],
  ["COc1ccc(NC(=O)c2ccn[nH]2)cc1NC(=O)c1ccc(Cl)cc1F", "Plasmodium berghei", 4.87]
]}

Give the value of IC90 reported for the following: O=C(Nc1ccccc1)Nc1cccc(C(F)(F)F)c1
4.4

---

Test system: Plasmodium berghei
assay_procedure: Luciferase/luciferin-expressing antifolate-resistant parasites were used to infect a culture of HepG2 cells that were pre-incubated with compounds. Infected hepatocytes emit light due to the luciferase reaction. Assay results are presented as the percent inhibition of light emission compared to control. […]
Type: functional
details: sporozoite, PBLUC_HILL_SLOPE 2.98, PBLUC_R_SQUARED 0.437, read-out: LUCIFERASE INFECTION ASSAY - IC50
value_type: pIC50
Remember, pIC50 is on a log scale: it is -log10 of the molar concentration.

Give the value of pIC50 reported for the following: CCCc1cc(NCCN(C)C)n2ncc(-c3ccccc3)c2n1
5.31

---

Test system: Plasmodium berghei
assay_procedure: Luciferase/luciferin-expressing antifolate-resistant parasites were used to infect a culture of HepG2 cells that were pre-incubated with compounds. Infected hepatocytes emit light due to the luciferase reaction. Assay results are presented as the percent inhibition of light emission compared to control. […]
Assay type: functional
details: sporozoite, HEPG2TOX_HILL_SLOPE 4.48, HEPG2TOX_R_SQUARED 0.152, PBLUC_HILL_SLOPE 2.08, PBLUC_R_SQUARED 0.431, read-out: LUCIFERASE INFECTION ASSAY - IC50
value_type: pIC50
Remember, pIC50 is on a log scale: it is -log10 of the molar concentration.

Give the value of pIC50 reported for the following: Cc1cc(NCc2ccccn2)n2nc(C)c(-c3ccccc3Cl)c2n1
5.72

---

Test system: Plasmodium berghei
assay_procedure: Luciferase/luciferin-expressing antifolate-resistant parasites were used to infect a culture of HepG2 cells that were pre-incubated with compounds. Infected hepatocytes emit light due to the luciferase reaction. Assay results are presented as the percent inhibition of light emission compared to control. […]
Format: functional
details: sporozoite, FFLUC_HILL_SLOPE 0.826, FFLUC_R_SQUARED 0.895, PBLUC_HILL_SLOPE 0.293, PBLUC_R_SQUARED 0.545, read-out: LUCIFERASE INFECTION ASSAY - IC50
value_type: IC50 (nM)
API: value field is a number in nM; no unit string.

Give the value of IC50 reported for the following: O=C(Nc1ccc(-c2nc3ccccc3[nH]2)cc1)C1CCC1
543

---

Tested on: Plasmodium berghei
assay_procedure: Luciferase/luciferin-expressing antifolate-resistant parasites were used to infect a culture of HepG2 cells that were pre-incubated with compounds. Infected hepatocytes emit light due to the luciferase reaction. Assay results are presented as the percent inhibition of light emission compared to control. […]
Format: functional
details: sporozoite, HEPG2TOX_HILL_SLOPE 0.0396, HEPG2TOX_R_SQUARED 0.037, PBLUC_HILL_SLOPE 3.01, PBLUC_R_SQUARED 0.32, read-out: LUCIFERASE INFECTION ASSAY - IC50
value_type: IC50 (µM)
API: value field is a number in µM; no unit string.

Give the value of IC50 reported for the following: O=C(c1ccc([N+](=O)[O-])o1)N1CCc2sccc2C1c1ccccc1 (stereo unspecified)
6.65

---

Tested on: Plasmodium berghei
assay_procedure: Luciferase/luciferin-expressing antifolate-resistant parasites were used to infect a culture of HepG2 cells that were pre-incubated with compounds. Infected hepatocytes emit light due to the luciferase reaction. Assay results are presented as the percent inhibition of light emission compared to control. […]
Assay type: functional
details: sporozoite, read-out: LUCIFERASE INFECTION ASSAY - IC90
# IC90 listing for each entry below

Quote IC90 with test system Plasmodium berghei for COc1ccc(NC(=O)c2ccoc2)cc1S(=O)(=O)Nc1ccc(Br)cc1
1.62 µM

Quote IC90 with test system Plasmodium berghei for Cc1nn(-c2ccccc2)c(C)c1C(=O)ONC(=N)c1ccc(C(C)(C)C)cc1
3.03 µM

Quote IC90 with test system Plasmodium berghei for Cc1noc(C)c1CSc1ccccc1C(=O)NNC(=O)c1ccc2ccccc2n1
6.77 µM

Quote IC90 with test system Plasmodium berghei for Cc1c(Cl)cccc1N=C(NS(=O)(=O)c1cccs1)c1ccccc1
> 10 µM

---

Test system: Plasmodium berghei
assay_procedure: Luciferase/luciferin-expressing antifolate-resistant parasites were used to infect a culture of HepG2 cells that were pre-incubated with compounds. Infected hepatocytes emit light due to the luciferase reaction. Assay results are presented as the percent inhibition of light emission compared to control. […]
Type: functional
details: sporozoite, PBLUC_HILL_SLOPE 2.28, PBLUC_R_SQUARED 0.575, read-out: LUCIFERASE INFECTION ASSAY - IC50
value_type: pIC50
Remember, pIC50 is on a log scale: it is -log10 of the molar concentration.

Give the value of pIC50 reported for the following: CCN(CC)S(=O)(=O)N1CCN(C(=O)c2[nH]nc3ccccc23)CC1
5.86

---

Test system: Plasmodium berghei
assay_procedure: Luciferase/luciferin-expressing antifolate-resistant parasites were used to infect a culture of HepG2 cells that were pre-incubated with compounds. Infected hepatocytes emit light due to the luciferase reaction. Assay results are presented as the percent inhibition of light emission compared to control. […]
Assay type: functional
details: sporozoite, PBLUC_HILL_SLOPE 132, PBLUC_R_SQUARED 0.705, read-out: LUCIFERASE INFECTION ASSAY - IC50
value_type: pIC50
Remember, pIC50 is on a log scale: it is -log10 of the molar concentration.

Give the value of pIC50 reported for the following: C=C(c1c[nH]c2ccccc12)c1c[nH]c2ccccc12
5.01
